# assay-target: T1, orthogonal hCD122 receptor (hoRb), hCD122 with H133D and Y134F (human, UniProt P14784 27-550)
# T1 sequence: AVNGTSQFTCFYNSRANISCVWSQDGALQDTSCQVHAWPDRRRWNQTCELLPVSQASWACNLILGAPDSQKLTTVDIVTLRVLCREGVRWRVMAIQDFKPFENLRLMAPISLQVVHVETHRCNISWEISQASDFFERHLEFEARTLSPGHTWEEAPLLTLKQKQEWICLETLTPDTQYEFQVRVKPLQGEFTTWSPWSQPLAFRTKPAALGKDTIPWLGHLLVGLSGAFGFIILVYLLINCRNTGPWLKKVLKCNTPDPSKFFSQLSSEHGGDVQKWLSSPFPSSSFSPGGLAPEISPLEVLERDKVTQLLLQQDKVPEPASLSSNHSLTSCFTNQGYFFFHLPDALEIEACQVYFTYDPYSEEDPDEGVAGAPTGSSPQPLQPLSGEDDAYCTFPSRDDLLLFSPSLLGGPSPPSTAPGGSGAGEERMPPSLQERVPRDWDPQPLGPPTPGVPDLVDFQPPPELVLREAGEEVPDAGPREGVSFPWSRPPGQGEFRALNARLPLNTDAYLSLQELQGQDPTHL
# protocol-details: cell-based or functional assay
Threshold check on NKL Ortho Proliferation Signal 1:50: strictly below 20000 is YES; on or above 20000 is NO.

Would you please look over these solved cases?
- binder: "T113N, SQVLKA (ligand) APTSSSTKKTQLQLSQLLVLLKAILNGINNYKNPKLTRMLTFKFYMPKKATELKHLQCLEEELKPLEEVLNLAQSKNFHLRPRDLISNINVIVLELKGSETTFMCEYADETANIVEFLNRWITFCQSIISTLT"
  class-name: "NO"
- binder: "L18I, SQVLKA (ligand) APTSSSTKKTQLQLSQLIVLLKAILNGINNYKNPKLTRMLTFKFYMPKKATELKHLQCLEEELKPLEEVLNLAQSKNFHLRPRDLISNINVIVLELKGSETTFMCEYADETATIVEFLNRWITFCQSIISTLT"
  class-name: "YES"
- binder: "N88Q, SQVLKA (ligand) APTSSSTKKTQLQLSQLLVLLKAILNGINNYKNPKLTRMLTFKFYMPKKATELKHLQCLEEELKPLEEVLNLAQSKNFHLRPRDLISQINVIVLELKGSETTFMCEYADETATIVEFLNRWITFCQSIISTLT"
  class-name: "YES"
- binder: "V91R, SQVLKA (ligand) APTSSSTKKTQLQLSQLLVLLKAILNGINNYKNPKLTRMLTFKFYMPKKATELKHLQCLEEELKPLEEVLNLAQSKNFHLRPRDLISNINRIVLELKGSETTFMCEYADETATIVEFLNRWITFCQSIISTLT"
  class-name: "YES"
- binder: "SQILKA (ligand) APTSSSTKKTQLQLSQLLILLKAILNGINNYKNPKLTRMLTFKFYMPKKATELKHLQCLEEELKPLEEVLNLAQSKNFHLRPRDLISNINVIVLELKGSETTFMCEYADETATIVEFLNRWITFCQSIISTLT"
  class-name: "NO"
- binder: "SQVLSA (ligand) APTSSSTKKTQLQLSQLLVLLSAILNGINNYKNPKLTRMLTFKFYMPKKATELKHLQCLEEELKPLEEVLNLAQSKNFHLRPRDLISNINVIVLELKGSETTFMCEYADETATIVEFLNRWITFCQSIISTLT"
  class-name: "YES"

Now turn to the next binder.
Req: Given T3P, SQVLKA (ligand) APPSSSTKKTQLQLSQLLVLLKAILNGINNYKNPKLTRMLTFKFYMPKKATELKHLQCLEEELKPLEEVLNLAQSKNFHLRPRDLISNINVIVLELKGSETTFMCEYADETATIVEFLNRWITFCQSIISTLT , is recorded NKL Ortho Proliferation Signal 1:50 strictly lower than 20000?
Resp: NO
